Taken from patent EP4725969A1.

biological target: T1, recombinant human HER2 extracellular domain protein (human, UniProt P04626 23-652); assay: BLI, Protein A capture
T1 construct: range 23-652; Range is printed for the immunogen/panning protein; also called ErbB2; recombinant HER2 protein
QUANTITY_KIND: koff (s⁻¹)
Your answer should be a plain number; it is taken to be in s⁻¹.

| BINDER | koff [s⁻¹] |
| --- | --- |
| 2126-Hu-L10 (antibody, IgG1, V domains shown, IgG1/Cκ) VH: QVQLVQSGSELKKPGASVKVSCKASGYTFTDYSMHWVRQAPGQGLEWMGWINTETGEPTYADDFKGRFVFSLDTSVSTAYLQISSLKAEDTAVYFCVRVGRYDYAMDYWGQGTTVTVSS VL: DIQMTQSPSSLSASVGDRVTITCKASQDVYTAVAWYQQKPGKAPKLLINSASNRYTGVPSRFSGSGSGTDFTLTISSLQPEDFATYYCQQHYSTPPTFGGGTKVEIK | 0.000558 |

Entry 2126-Hu-L07 (antibody, IgG1, V domains shown, IgG1/Cκ) VH: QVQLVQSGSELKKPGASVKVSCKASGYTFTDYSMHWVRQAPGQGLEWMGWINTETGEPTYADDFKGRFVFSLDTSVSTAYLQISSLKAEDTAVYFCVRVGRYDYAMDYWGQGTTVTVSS VL: DIQMTQSPSSLSASVGDRVTITCKASQDVYTAVAWYQQKPGKAPKLLINSASDRYTGVPSRFSGSGSGTDFTLTISSLQPEDFATYYCQQHYSTPPTFGGGTKVEIK : reported koff = ?
0.00061

Record request: koff value, item 2126-Hu-H48 (antibody, IgG1, name in Kabat numbering, V domains shown, IgG1/Cκ) VH: QVQLVQSGSELKKPGASVKVSCKASGYTFTDYSMHWVRQAPGQGLEWMGWINTETGEPTYADDFKGRFVFSLDTSVSTAYLQISSLKAEDTAVYFCVRVGKYDYAMDYWGQGTTVTVSS VL: DIQMTQSPSSLSASVGDRVTITCKASQDVYTAVAWYQQKPGKAPKLLINSASYRYTGVPSRFSGSGSGTDFTLTISSLQPEDFATYYCQQHYSTPPTFGGGTKVEIK
0.00392
